Biological target: T1, orthogonal hCD122 receptor (hoRb), hCD122 with H133D and Y134F (human, UniProt P14784 27-550)
T1 sequence: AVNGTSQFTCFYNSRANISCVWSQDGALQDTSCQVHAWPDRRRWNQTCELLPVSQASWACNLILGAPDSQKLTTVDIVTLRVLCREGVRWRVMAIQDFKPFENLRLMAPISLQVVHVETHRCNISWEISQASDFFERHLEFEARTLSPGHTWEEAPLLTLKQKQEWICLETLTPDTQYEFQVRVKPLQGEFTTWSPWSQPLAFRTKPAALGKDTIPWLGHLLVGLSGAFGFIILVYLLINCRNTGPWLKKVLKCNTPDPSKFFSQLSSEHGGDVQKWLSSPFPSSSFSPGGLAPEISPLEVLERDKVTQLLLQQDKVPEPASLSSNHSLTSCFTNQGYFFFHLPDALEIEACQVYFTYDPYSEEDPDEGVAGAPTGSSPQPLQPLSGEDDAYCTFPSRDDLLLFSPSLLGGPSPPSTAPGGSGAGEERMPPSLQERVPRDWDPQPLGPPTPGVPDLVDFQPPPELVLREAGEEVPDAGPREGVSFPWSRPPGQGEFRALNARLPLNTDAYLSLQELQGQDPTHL
Assay: cell-based or functional assay
readout: NKL Ortho Proliferation Signal 1:10
Give the value as a plain number.

These solved cases illustrate the format of a correct answer.
[[record]]
binder = "Q74S, SQVLKA (ligand) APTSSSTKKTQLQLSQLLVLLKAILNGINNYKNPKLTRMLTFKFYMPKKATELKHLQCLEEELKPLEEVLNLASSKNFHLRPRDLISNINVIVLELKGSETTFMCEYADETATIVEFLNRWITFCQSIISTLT"
data_value = 65700

[[record]]
binder = "ΔT3, SQVLKA (ligand) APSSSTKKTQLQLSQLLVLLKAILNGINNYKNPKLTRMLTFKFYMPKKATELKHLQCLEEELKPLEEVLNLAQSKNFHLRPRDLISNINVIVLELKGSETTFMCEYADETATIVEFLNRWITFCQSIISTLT"
data_value = 64600

[[record]]
binder = "SQVLSA (ligand) APTSSSTKKTQLQLSQLLVLLSAILNGINNYKNPKLTRMLTFKFYMPKKATELKHLQCLEEELKPLEEVLNLAQSKNFHLRPRDLISNINVIVLELKGSETTFMCEYADETATIVEFLNRWITFCQSIISTLT"
data_value = 13000


API: the following record is the query input.
Lab note: measured NKL Ortho Proliferation Signal 1:10 of SQVLKS (ligand) APTSSSTKKTQLQLSQLLVLLKSILNGINNYKNPKLTRMLTFKFYMPKKATELKHLQCLEEELKPLEEVLNLAQSKNFHLRPRDLISNINVIVLELKGSETTFMCEYADETATIVEFLNRWITFCQSIISTLT was 59400
